Hey, just so you know, these numbers are from paper PMC11279629.

- test_name: Pharmacokinetics in mice, 10 mg/kg i.v.
- Assay type: in vivo, Male CD1 mice
- condition_label: male, CD1, mouse, iv, pooled plasma
measured_attribute: AUC(0-t)

I have this molecule here, CCOc1ccccc1-c1cc2n(n1)C(CS(C)(=O)=O)CNC2=O (stereo not shown) , and I need its recorded AUC(0-t).
3800 ng·h/mL

* * *

- test_name: Pharmacokinetics in mice, 10 mg/kg i.v.
- Type: in vivo, Male CD1 mice
- condition_label: male, CD1, mouse, plasma, iv, 10 mg/kg, read-out: i.v. half-life
measured_attribute: half-life

Entry under review: CCOc1ccccc1-c1cc2n(n1)C(CS(C)(=O)=O)CNC2=O (stereo not shown) [Compound 2] . Reported half-life?
~30 min
